Value source: patent US20250170248A1

# Tested Target: UniProt P51531
# Procedure Summary: MSD SMARCA2 degradation in A549 cell line
# Type: cell-based
# Run Parameters: A549 cells, 24 h, read-out: SMARCA2 MSD A549 degradation 24 h: Average external-Abs DC50
# Method: Example 10. MSD SMARCA2 Degradation in A549 Cell Line Cells were seeded into 96-well plates (A549 cells: 2×10^4 cells/well/100 ul media) and incubated overnight. […] The MSD plate was washed three times with 150 uL/well of TBST and 150 ul/well of 2× MSD reading buffer diluted from 4× (MSD, R92TC-2) with water was added. Lastly, the MSD instrument was read. […]
Observation Type: DC50

Provide DC50 values for the following items, in order.
1. C#Cc1ccc(CNC(=O)[C@@H]2C[C@@H](O)CN2C(=O)[C@@H](NC(=O)[C@H]2CCC3(CC2)C[C@H](N2CCC(c4cnc(N5CCN6c7cc(-c8ccccc8O)nnc7NC[C@H]6C5)nc4)CC2)C3)C(C)(C)C)c(OCCCN(C)C)c1 (single isomer, unassigned) [I-129]
2. C#Cc1ccc(CNC(=O)[C@@H]2C[C@@H](O)CN2C(=O)[C@@H](NC(=O)[C@H]2CCC3(CC2)C[C@H](N2CCC(N4CCC(N5CCN6c7cc(-c8ccccc8O)nnc7NC[C@H]6C5)CC4)CC2)C3)C(C)(C)C)cc1 (single isomer, unassigned) [I-174]

1: 10 to 50 nM; 2: > 100 nM

====

Exercise: for every item that follows, state its recorded DC50.
# Tested Target: SMARCA4 (Homo sapiens, UniProt P51532)
# Construct: SMARCA2/SMARCA4 protein degradation selectivity in MV4-11 cells; endogenous in cells; host or cells: MV4-11
# Sequence (P51532 whole entry): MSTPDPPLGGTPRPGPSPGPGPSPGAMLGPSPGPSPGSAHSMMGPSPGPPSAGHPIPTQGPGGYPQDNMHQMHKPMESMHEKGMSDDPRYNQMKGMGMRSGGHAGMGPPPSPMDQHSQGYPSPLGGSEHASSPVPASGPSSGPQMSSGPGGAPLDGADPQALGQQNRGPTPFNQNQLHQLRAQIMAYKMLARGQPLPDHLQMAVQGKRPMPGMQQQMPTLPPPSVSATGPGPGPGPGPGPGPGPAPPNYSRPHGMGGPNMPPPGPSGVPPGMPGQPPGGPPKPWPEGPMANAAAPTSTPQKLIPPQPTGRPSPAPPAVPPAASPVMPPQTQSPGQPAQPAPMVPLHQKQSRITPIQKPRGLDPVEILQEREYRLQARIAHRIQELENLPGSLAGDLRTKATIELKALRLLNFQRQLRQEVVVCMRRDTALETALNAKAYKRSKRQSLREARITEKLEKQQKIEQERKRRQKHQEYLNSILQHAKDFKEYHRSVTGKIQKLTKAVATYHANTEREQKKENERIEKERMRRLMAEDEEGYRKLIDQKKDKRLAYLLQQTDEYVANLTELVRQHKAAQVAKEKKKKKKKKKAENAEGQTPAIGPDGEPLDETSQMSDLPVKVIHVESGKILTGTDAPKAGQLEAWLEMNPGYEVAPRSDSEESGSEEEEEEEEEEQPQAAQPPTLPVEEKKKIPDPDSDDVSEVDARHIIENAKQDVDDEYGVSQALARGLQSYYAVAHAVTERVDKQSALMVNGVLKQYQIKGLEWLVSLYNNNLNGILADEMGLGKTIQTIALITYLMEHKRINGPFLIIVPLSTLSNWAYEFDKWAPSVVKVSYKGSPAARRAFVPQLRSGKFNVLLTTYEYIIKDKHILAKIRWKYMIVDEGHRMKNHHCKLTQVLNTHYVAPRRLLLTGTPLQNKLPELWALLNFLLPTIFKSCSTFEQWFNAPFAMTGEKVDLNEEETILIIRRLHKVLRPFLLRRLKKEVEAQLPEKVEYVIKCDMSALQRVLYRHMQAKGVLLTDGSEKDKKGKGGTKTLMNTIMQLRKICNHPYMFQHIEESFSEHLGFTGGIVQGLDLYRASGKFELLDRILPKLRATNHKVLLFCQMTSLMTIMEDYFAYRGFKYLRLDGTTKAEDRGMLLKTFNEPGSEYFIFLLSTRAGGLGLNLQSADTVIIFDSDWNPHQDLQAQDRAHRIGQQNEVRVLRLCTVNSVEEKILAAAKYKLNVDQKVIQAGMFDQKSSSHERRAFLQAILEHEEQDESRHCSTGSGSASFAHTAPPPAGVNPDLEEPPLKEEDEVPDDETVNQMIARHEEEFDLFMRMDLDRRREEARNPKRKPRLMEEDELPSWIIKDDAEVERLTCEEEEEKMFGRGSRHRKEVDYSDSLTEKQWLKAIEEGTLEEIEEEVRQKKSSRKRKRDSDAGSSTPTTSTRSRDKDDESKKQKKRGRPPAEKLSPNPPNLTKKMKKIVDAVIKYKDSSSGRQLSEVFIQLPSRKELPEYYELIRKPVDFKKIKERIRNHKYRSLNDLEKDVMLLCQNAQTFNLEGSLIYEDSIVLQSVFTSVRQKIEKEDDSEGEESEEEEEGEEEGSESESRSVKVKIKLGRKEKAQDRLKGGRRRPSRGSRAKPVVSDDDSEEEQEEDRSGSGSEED
# Procedure Summary: SMARCA4 Western blot degradation in MV4-11 cells
# Format: cell-based
# Run Parameters: MV4-11 cells, 24 h; read-out: SMARCA4 MSD MV411 degradation 24 h: Mean external-Abs DC50

These solved cases illustrate the format of a correct answer.
Compound	DC50
C#Cc1cnc(CNC(=O)[C@@H]2C[C@@H](O)CN2C(=O)[C@@H](NC(=O)[C@H]2CC3(C2)C[C@H](N2CCC(N4CCC(N5CCN6c7cc(-c8ccccc8O)nnc7NC[C@H]6C5)CC4)CC2)C3)C(C)(C)C)c(OC)c1 (stereo partly drawn) [I-331]	> 100 nM
C#Cc1ccc(CNC(=O)[C@@H]2C[C@@H](O)CN2C(=O)[C@@H](NC(=O)N2CCN(CC3CCN([C@H]4CC[C@@H](N5CCc6[nH]c7nnc(-c8ccccc8O)cc7c6[C@H]5C)CC4)CC3)CC2)C(C)(C)C)cc1	> 100 nM
CC#Cc1ccc(CNC(=O)[C@@H]2C[C@@H](O)CN2C(=O)[C@@H](NC(=O)N2CC3(CC(N4CCC(c5cnc(N6CCc7[nH]c8nnc(-c9ccccc9O)cc8c7[C@H]6C)nc5)CC4)C3)C2)C(C)(C)C)cc1	> 100 nM
Cc1ncsc1-c1ccc(CNC(=O)[C@@H]2C[C@@H](O)CN2C(=O)C(c2cc(OC[C@H]3CC[C@H](N4CCC(c5cnc(N6CCc7[nH]c8nnc(-c9ccccc9O)cc8c7[C@@H]6C)nc5)CC4)CC3)no2)C(C)C)cc1 (single isomer, unassigned)	10 to 100 nM
C#Cc1ccc(CNC(=O)[C@@H]2C[C@@H](O)CN2C(=O)[C@@H](NC(=O)N2CCN(CC3CCN([C@H]4CC[C@H](N5CCN6c7cc(-c8ccccc8O)nnc7NC[C@H]6C5)CC4)CC3)CC2)C(C)(C)C)cc1	> 100 nM

Read the next record carefully.
Form field: reported DC50 of C#Cc1ccc(C2(NC(=O)[C@@H]3C[C@@H](O)CN3C(=O)[C@@H](NC(=O)[C@H]3CC4(C3)C[C@H](N3CCC(N5CCC(N6CCN7c8cc(-c9ccccc9O)nnc8NC[C@H]7C6)CC5)CC3)C4)C(C)(C)C)CC2)cc1 (single isomer, unassigned) [I-225]
> 100 nM

====

# Tested Target: SMARCA2 (Homo sapiens)
# Procedure Summary: MSD SMARCA2 degradation in A549 cell line
# Assay type: cell-based
# Run Parameters: A549, A549 cells, 24 h
# Procedure: Example 10. MSD SMARCA2 Degradation in A549 Cell Line Cells were seeded into 96-well plates (A549 cells: 2×10^4 cells/well/100 ul media) and incubated overnight. […] The MSD plate was washed three times with 150 uL/well of TBST and 150 ul/well of 2× MSD reading buffer diluted from 4× (MSD, R92TC-2) with water was added. Lastly, the MSD instrument was read. […]
Exercise: for every item that follows, state its recorded Dmax.

Compound	Dmax
Cc1ncsc1-c1ccc(CNC(=O)[C@@H]2C[C@@H](O)CN2C(=O)C(c2cc(OCCCCN3CCC(c4cnc(N5CCN6c7cc(-c8ccccc8O)nnc7NC[C@H]6C5)nc4)CC3)no2)C(C)C)cc1 (some centres unmarked)	> 90%

Provide Dmax values for the following items, in order.
1. C#Cc1ccc(CNC(=O)[C@@H]2C[C@@H](O)CN2C(=O)[C@@H](NC(=O)[C@H]2CCC3(CC2)C[C@H](N2CCC(c4cnc(N5CCN6c7cc(-c8ccccc8O)nnc7NC[C@H]6C5)nc4)CC2)C3)C(C)(C)C)c(OC)c1 (single isomer, unassigned)
2. C#Cc1ccc(CNC(=O)[C@@H]2C[C@@H](O)CN2C(=O)[C@@H](NC(=O)C2CCN(CC3CCC(N4CCC(N5CCc6[nH]c7nnc(-c8ccccc8O)cc7c6[C@H]5C)CC4)CC3)CC2)C(C)(C)C)cc1 (some centres unmarked)
3. C#Cc1ccc(CNC(=O)[C@@H]2C[C@@H](O)CN2C(=O)[C@@H](NC(=O)N2CCC[C@H](CN3CCC(N4CCC(N5CCN6c7cc(-c8ccccc8O)nnc7NC[C@H]6C5)CC4)CC3)C2)C(C)(C)C)cc1

> 90%
70 to 90%
< 50%

Form field: reported Dmax of Cc1ncsc1-c1ccc(CNC(=O)[C@@H]2C[C@@H](O)CN2C(=O)[C@@H](NC(=O)[C@H]2CC[C@@H](c3ccc(-c4cnc(N5CCN6c7cc(-c8ccccc8O)nnc7NC[C@H]6C5)nc4)cc3)CC2)C(C)(C)C)cc1
> 90%

====

# Tested Target: SMARCA2 (Homo sapiens, UniProt P51531)
# Sequence (P51531 whole entry): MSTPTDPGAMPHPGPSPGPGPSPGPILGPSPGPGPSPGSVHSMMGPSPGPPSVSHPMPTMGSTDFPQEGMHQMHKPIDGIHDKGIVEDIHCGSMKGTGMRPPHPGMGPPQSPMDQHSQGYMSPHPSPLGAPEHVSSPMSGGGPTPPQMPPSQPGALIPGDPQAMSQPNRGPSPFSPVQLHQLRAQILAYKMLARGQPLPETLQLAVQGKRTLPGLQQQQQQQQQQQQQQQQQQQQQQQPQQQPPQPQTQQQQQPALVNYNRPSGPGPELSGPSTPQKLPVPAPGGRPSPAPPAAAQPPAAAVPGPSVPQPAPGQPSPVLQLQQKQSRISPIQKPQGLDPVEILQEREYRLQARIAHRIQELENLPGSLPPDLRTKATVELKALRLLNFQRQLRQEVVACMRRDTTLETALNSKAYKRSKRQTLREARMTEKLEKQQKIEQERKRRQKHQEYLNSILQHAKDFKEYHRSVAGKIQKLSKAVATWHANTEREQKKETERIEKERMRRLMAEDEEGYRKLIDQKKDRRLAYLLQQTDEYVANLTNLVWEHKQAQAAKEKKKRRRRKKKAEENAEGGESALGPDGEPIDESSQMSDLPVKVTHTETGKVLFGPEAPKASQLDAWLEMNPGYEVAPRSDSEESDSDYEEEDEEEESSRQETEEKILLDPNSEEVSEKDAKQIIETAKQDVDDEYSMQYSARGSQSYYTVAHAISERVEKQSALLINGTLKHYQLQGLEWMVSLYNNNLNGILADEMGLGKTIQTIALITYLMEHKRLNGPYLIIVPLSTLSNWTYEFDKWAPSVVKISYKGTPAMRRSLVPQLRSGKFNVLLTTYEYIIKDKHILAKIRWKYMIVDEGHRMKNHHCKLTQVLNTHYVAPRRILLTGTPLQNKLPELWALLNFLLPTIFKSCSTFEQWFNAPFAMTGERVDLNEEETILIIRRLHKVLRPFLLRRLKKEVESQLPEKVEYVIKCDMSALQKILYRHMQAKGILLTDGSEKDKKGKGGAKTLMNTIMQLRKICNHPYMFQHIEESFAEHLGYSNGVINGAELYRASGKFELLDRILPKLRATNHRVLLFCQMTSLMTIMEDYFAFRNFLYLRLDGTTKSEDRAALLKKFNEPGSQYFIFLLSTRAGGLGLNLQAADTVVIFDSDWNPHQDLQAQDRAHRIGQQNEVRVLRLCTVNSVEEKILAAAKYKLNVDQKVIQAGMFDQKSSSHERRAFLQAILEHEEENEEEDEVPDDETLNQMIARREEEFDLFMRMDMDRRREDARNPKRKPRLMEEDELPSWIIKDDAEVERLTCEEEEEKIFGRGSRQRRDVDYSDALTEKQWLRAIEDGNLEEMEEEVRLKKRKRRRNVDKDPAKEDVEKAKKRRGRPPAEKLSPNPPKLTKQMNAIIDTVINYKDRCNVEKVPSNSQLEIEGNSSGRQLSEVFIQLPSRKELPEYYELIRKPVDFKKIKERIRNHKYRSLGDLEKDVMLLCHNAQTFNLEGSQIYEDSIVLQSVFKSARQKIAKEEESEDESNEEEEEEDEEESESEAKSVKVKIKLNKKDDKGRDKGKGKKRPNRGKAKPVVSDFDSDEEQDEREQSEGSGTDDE
# Procedure Summary: SMARCA2 Western blot degradation in MV4-11 cells
# Format: cell-based
# Design: SMARCA2/SMARCA4 protein degradation selectivity in MV4-11 cells; endogenous in cells; host or cells: MV4-11
# Run Parameters: SMARCA2/4 selectivity, MV4-11 cells

Compound	Selectivity in MV411
C#Cc1ccc(CNC(=O)[C@@H]2C[C@@H](O)CN2C(=O)[C@@H](NC(=O)[C@H]2CCC3(CC2)C[C@H](N2CCC(c4cnc(N5CCN6c7cc(-c8cccc(F)c8O)nnc7NC[C@H]6C5)nc4)CC2)C3)C(C)(C)C)cc1 (single isomer, unassigned) [I-102]	C (C (10-100 fold))
C#Cc1ccc([C@H](C)NC(=O)[C@@H]2C[C@@H](O)CN2C(=O)[C@@H](NC(=O)[C@H]2CCC3(CC2)C[C@H](N2CCN(c4cnc(N5CCN6c7cc(-c8ccccc8O)nnc7NC[C@H]6C5)nc4)CC2)C3)C(C)(C)C)cc1 (single isomer, unassigned) [I-234]	C (C (10-100 fold))

====

Exercise: for every item that follows, state its recorded DC50.
# Tested Target: SMARCA2 (Homo sapiens)
# Procedure Summary: SMARCA2 Western blot degradation in MV4-11 cells
# Type: cell-based
# Design: SMARCA2/SMARCA4 protein degradation selectivity in MV4-11 cells; endogenous in cells; host or cells: MV4-11
# Run Parameters: MV4-11 cells, 24 h; read-out: SMARCA2 MSD MV411 degradation 24 h: Mean external-Abs DC50

Compound	Recorded Measurement
C#Cc1ccc(CNC(=O)[C@@H]2C[C@@H](O)CN2C(=O)[C@@H](NC(=O)[C@H]2CCC3(CC2)C[C@H](N2CCC(N4CCC(N5CCN6c7cc(-c8ccccc8O)nnc7NC[C@H]6C5)CC4)CC2)C3)C(C)(C)C)cc1 (single isomer, unassigned) [I-175]	1 to 10 nM

Read the next record carefully.
Form field: reported DC50 of C#Cc1ccc(CNC(=O)[C@@H]2C[C@@H](O)CN2C(=O)[C@@H](NC(=O)N2CC3(CC(N4CCC(c5cnc(N6CCc7[nH]c8nnc(-c9ccccc9O)cc8c7[C@H]6C)nc5)CC4)C3)C2)C(C)(C)C)c(O)c1 [I-166]
1 to 10 nM

====

Exercise: for every item that follows, state its recorded Dmax.
# Tested Target: SMARCA2 (Homo sapiens)
# Procedure Summary: MSD SMARCA2 degradation in A549 cell line
# Type: cell-based
# Run Parameters: A549, A549 cells, 24 h

These solved cases illustrate the format of a correct answer.
Substance Smiles	Tested Target	Dmax
C#Cc1ccc(CNC(=O)[C@@H]2C[C@@H](O)CN2C(=O)[C@@H](NC(=O)N2CC3(CC(N4CCC(c5cnc(N6CCc7[nH]c8nnc(-c9ccccc9O)cc8c7[C@H]6C)nc5)CC4)C3)C2)C(C)(C)C)c(OCCCOC)c1	SMARCA2 (Homo sapiens)	> 90%
C#Cc1ccc([C@H](C)NC(=O)[C@@H]2C[C@@H](O)CN2C(=O)[C@@H](NC(=O)N2CC3(CC(N4CCC(c5cnc(N6CCc7[nH]c8nnc(-c9ccccc9O)cc8c7[C@H]6C)cn5)CC4)C3)C2)C(C)(C)C)cc1	SMARCA2 (Homo sapiens)	> 90%
Cc1ncsc1-c1ccc(CNC(=O)[C@@H]2C[C@@H](O)CN2C(=O)[C@@H](NC(=O)N2CC3(CC(N4CCC(c5cnc(N6CCN7c8cc(-c9ccccc9O)nnc8NC[C@H]7C6)nc5)CC4)C3)C2)C(C)(C)C)cc1	SMARCA2 (Homo sapiens)	> 90%

Form field: reported Dmax of C#Cc1ccc(CNC(=O)[C@@H]2C[C@@H](O)CN2C(=O)[C@@H](NC(=O)N2CC3(CC(N4CCC(c5cnc(N6CCc7[nH]c8nnc(-c9ccccc9O)cc8c7[C@H]6C)nc5)CC4)C3)C2)C(C)(C)C)c(F)c1
> 90%
